TGT: 5-HT7 receptor (Homo sapiens)
Construct: host or cells: HEK-293 cells (membrane preparation)
PROTOCOL_DESCRIPTION: Eurofins Cerep competition binding assay at 5-HT7 receptor
DETAILS: 10 μM test ligand, [3H]LSD, recombinant receptor from HEK-293 cells; read-out: HT7, percent of control-specific binding
inhibition at 10 µM strictly under 20% means True; at 20% or over means False.

Some entries whose results are on file:
1. COc1ccc2[nH]cc(CCNC(C)=O)c2c1 :: True
2. CCCOc1c(OC)cc(CCN)cc1OC :: True
3. N[C@@H](Cc1c[nH]c2ccccc12)C(=O)O :: True
4. CC(NC(C)(C)C)C(=O)c1cccc(Cl)c1 (stereo not drawn) :: True

Now turn to the next compound.
Q: Here's an entry: NCCc1c[nH]c2ccc(O)cc12 . Is its inhibition at 10 µM below 20%?
Ans: False

---

TGT: 5-HT7 receptor (Homo sapiens, UniProt P34969)
Construct: host or cells: HEK-293 cells (membrane preparation)
Sequence (P34969 whole entry): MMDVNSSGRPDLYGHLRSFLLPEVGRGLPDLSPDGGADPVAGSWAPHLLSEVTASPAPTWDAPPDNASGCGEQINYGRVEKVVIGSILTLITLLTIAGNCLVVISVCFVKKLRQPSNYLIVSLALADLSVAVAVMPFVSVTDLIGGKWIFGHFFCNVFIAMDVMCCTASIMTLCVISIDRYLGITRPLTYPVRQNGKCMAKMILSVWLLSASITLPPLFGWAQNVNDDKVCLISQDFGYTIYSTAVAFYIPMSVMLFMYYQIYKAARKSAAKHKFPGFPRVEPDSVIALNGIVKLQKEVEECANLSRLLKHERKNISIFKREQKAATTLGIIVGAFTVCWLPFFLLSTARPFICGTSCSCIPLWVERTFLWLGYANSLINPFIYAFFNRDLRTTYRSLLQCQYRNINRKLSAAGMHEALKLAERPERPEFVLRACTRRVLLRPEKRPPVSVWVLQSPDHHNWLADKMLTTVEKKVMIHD
PROTOCOL_DESCRIPTION: Eurofins Cerep competition binding assay at 5-HT7 receptor
DETAILS: 10 μM test ligand, [3H]LSD, recombinant receptor from HEK-293 cells; read-out: HT7, percent of control-specific binding
// NB: equality with 40% counts as criterion not met; only inhibition at 10 µM strictly below is criterion met

1. CC(C(F)c1ccc2c(c1)OCO2)N(C)Cc1ccccc1 (single isomer, unassigned) [D(III) as diast. (vii)] :: criterion not met
2. N#Cc1ccc2[nH]cc(CCCCN3CCN(c4ccc5oc(C(N)=O)cc5c4)CC3)c2c1 :: criterion not met
3. COc1cc(CCN)cc(OC)c1OC :: criterion met
4. CN(C)CCCN1c2ccccc2CCc2ccccc21 :: criterion not met

Lab note: next molecule to report on.
Q: Given CC(C(=O)c1ccc2c(c1)OCO2)N1CCCC1 (racemic) , is recorded inhibition at 10 µM strictly lower than 40%?
Ans: criterion met

---

Quick list: Ki per entry.
TGT: 5-HT1A receptor (Homo sapiens, UniProt P08908)
Construct: purchased Perkin Elmer 6110501400UA
Sequence (P08908 whole entry): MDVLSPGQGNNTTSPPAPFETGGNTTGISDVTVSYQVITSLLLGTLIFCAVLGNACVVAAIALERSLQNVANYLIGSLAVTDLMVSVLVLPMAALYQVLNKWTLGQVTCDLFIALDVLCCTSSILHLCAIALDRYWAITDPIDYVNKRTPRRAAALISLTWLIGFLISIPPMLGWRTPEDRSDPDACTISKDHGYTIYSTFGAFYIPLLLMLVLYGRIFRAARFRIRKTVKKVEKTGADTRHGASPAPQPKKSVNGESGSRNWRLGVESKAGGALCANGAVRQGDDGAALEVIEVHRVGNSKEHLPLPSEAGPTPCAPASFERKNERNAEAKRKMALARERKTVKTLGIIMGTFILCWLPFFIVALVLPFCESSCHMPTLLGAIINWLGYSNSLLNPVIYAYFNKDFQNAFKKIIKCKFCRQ
PROTOCOL_DESCRIPTION: 5-HT1A receptor radioligand competition assay (SPA)
Assay type: binding
DETAILS: 5-HT1A, Ki, competition with 0.5 nM [3H]8-hydroxy-DPAT, membranes containing 5-HT1A
Give your result in µM as a bare value.

For orientation, consider the following solved cases.
1) CC(C(O)c1ccc2c(c1)OCO2)N(C)Cc1ccccc1 (single isomer, unassigned) [B(III) as diast. (iv)] :: 16.9
2) CC(C(O)c1ccc2c(c1)OCO2)N(C)Cc1ccccc1 (single isomer, unassigned) [B(III) as diast. (iii)] :: 110
3) CC(NCc1ccccc1)C(C)c1ccc2c(c1)OCO2 (stereo not shown) [Ex(VI) as diast. (xi) and (xii)] :: 65.9

Q: Could you tell me which Ki is on file for CC(C(O)c1ccc2c(c1)OCO2)N(C)Cc1ccccc1 (stereo not shown) [B(III) as diast. (iv)] ?
Ans: 16.9

Q: // repeat for CC(C(=O)c1ccc2c(c1)OCO2)N1CCCC1 (racemic) [A(I)] and report
Ans: 2

Q: Continue with CC(C(F)c1ccc2c(c1)OCO2)N(C)Cc1ccccc1 (single isomer, unassigned) [D(III) as diast. (vii)]
Ans: 11.3

Q: // repeat for C[C@@H]([C@H](F)c1ccc2c(c1)OCO2)N(C)Cc1ccccc1 [D(III) as diast. (vii)] and report
Ans: 11.3

Q: Then this compound: COc1cc(CCN)cc(OC)c1OC [mescaline, 3,4,5 trimethoxyphenethylamine]
Ans: 8.5

Q: Next compound up: CCCOc1c(OC)cc(CCN)cc1OC [proscaline]
Ans: 9.4

Q: Now give it for CNC(C)C(F)c1ccc2c(c1)OCO2 (single isomer, unassigned) [D(II) as diast. (vi)] too.
Ans: 6

Q: Again, but for CC(C(=O)c1ccc2c(c1)OCO2)N(C)Cc1ccccc1 (racemic) [A(III)]
Ans: 49

---

TGT: MT1 receptor (Homo sapiens, UniProt P48039)
Construct: host or cells: CHO cells (membrane preparation)
Sequence (P48039 whole entry): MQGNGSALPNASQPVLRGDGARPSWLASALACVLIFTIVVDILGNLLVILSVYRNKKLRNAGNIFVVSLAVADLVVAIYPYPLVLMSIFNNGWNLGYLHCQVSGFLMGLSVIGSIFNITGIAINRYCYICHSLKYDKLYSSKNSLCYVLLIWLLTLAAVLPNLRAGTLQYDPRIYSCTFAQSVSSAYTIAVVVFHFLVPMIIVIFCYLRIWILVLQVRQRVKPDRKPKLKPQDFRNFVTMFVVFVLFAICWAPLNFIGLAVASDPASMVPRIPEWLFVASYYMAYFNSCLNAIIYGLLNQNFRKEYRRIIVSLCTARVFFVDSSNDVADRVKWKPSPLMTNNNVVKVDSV
PROTOCOL_DESCRIPTION: Eurofins Cerep competition binding assay at MT1 receptor
DETAILS: read-out: MT1, percent of control-specific binding, 10 μM test ligand, [125I]2-iodomelatonin, recombinant receptor from CHO cells
// returns no (0) unless inhibition at 10 µM is strictly below 7%, in which case yes (1)

1. Cc1ccc(Sc2ccccc2N2CCNCC2)c(C)c1 :: no (0)
2. CC(C(=O)c1ccc2c(c1)OCO2)N1CCCC1 (racemic) :: yes (1)
3. CCCOc1c(OC)cc(CCN)cc1OC :: yes (1)

# next molecule below
Q: Criterion: inhibition at 10 µM strictly below 7%. Is it met by CC(C(F)c1ccc2c(c1)OCO2)N(C)Cc1ccccc1 (single isomer, unassigned) [D(III) as diast. (vii)] ?
Ans: no (0)

---

TGT: serotonin transporter (SERT) (Homo sapiens)
Construct: host or cells: CHO cells (membrane preparation)
Sequence (P31645 whole entry): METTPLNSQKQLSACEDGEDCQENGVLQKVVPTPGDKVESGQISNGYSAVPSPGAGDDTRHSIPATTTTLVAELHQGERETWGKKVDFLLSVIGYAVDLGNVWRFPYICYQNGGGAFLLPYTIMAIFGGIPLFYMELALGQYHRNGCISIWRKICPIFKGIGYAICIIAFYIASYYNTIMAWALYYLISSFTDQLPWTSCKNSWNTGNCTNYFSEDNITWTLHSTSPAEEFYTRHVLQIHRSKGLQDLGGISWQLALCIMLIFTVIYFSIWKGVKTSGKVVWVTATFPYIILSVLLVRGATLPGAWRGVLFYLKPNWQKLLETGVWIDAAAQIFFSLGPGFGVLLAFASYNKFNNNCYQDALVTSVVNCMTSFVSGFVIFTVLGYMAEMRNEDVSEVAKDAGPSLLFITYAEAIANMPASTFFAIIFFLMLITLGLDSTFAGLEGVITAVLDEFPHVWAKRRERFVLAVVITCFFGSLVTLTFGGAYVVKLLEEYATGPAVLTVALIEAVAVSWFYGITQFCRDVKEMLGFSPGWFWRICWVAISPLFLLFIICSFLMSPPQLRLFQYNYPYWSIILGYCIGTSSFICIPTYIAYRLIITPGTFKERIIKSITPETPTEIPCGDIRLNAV
PROTOCOL_DESCRIPTION: biochemical
Assay type: binding
DETAILS: read-out: SERT, percent of control-specific binding
ENDPOINT: inhibition at 10 µM
Answer with the figure and its unit, nothing else.

Please review the entries below; each comes with its answer.
1. CC(C(O)c1ccc2c(c1)OCO2)N(C)Cc1ccccc1 (single isomer, unassigned) [B(III) as diast. (iii)] :: 58%
2. Cc1ccc(Sc2ccccc2N2CCNCC2)c(C)c1 [vortioxetine] :: 101%
3. CCCOc1c(OC)cc(CCN)cc1OC [proscaline] :: 23%
4. CC(C(=O)c1ccc2c(c1)OCO2)N(C)Cc1ccccc1 (racemic) [A(III)] :: 5%
5. COc1cc(CCN)cc(OC)c1OC [mescaline, 3,4,5 trimethoxyphenethylamine] :: -6%

Q: Requested read-out: inhibition at 10 µM. Entry: CC(C(=O)c1ccc2c(c1)OCO2)N1CCCC1 (racemic) [A(I)]
Ans: 25%

Q: Also COc1ccc2cccc(CCNC(C)=O)c2c1 [Agomelatine, agomelatine] , if possible.
Ans: 30%

Q: What about this molecule? N[C@@H](Cc1c[nH]c2ccccc12)C(=O)O [tryptophan]
Ans: 1%

Q: Likewise for CN(C)CCCN1c2ccccc2CCc2ccccc21 [Imipramine, imipramine] ?
Ans: 98%

Q: Then what about the molecule CC(C(F)c1ccc2c(c1)OCO2)N(C)Cc1ccccc1 (single isomer, unassigned) [D(III) as diast. (vii)] ?
Ans: 35%

Q: Then what about the molecule N#Cc1ccc2[nH]cc(CCCCN3CCN(c4ccc5oc(C(N)=O)cc5c4)CC3)c2c1 [Vilazodone, vilazodone] ?
Ans: 100%

---

TGT: MT1 receptor (Homo sapiens)
Construct: host or cells: CHO cells (membrane preparation)
PROTOCOL_DESCRIPTION: Eurofins Cerep competition binding assay at MT1 receptor
DETAILS: 10 μM test ligand, [125I]2-iodomelatonin, recombinant receptor from CHO cells
ENDPOINT: MT1, percent of control-specific binding (%)
Write it as a number; the unit % goes unstated.

Examples with answers:
1) CCOc1c(OC)cc(CCN)cc1OC [escaline] :: 0
2) CNC(C)Cc1ccc2c(c1)OCO2 (stereo not shown) [MDMA] :: 1
3) COc1cc(CC(C)N)c(OC)cc1Br (stereo not shown) [DOB] :: −3

Continue with the next compound.
Q: Query: MT1, percent of control-specific binding; subject: COc1cc(CCN)c(OC)cc1Br [2C-B]
Ans: 86

---

TGT: 5-HT1A receptor (Homo sapiens, UniProt P08908)
Construct: purchased Perkin Elmer 6110501400UA
PROTOCOL_DESCRIPTION: Eurofins Cerep competition binding assay at 5-HT1A receptor
DETAILS: 10 μM test ligand, [3H]8-OH-DPAT, recombinant receptor from HEK-293 cells; read-out: HT1A, percent of control-specific binding
ENDPOINT: inhibition at 10 µM (%)
Express your answer in %, writing the number without its unit.

Solved cases below.
1) COc1cc(CCN)cc(OC)c1OC :: 65
2) N#Cc1ccc2[nH]cc(CCCCN3CCN(c4ccc5oc(C(N)=O)cc5c4)CC3)c2c1 :: 99
3) NCCc1c[nH]c2ccc(O)cc12 :: 100
4) COc1ccc2cccc(CCNC(C)=O)c2c1 :: 58
5) CCCOc1c(OC)cc(CCN)cc1OC :: 71

Q: Provide the documented inhibition at 10 µM with 5-HT1A receptor (Homo sapiens, UniProt P08908) as the system for CN(C)CCCN1c2ccccc2CCc2ccccc21
Ans: 34

Q: Would you mind doing CNCC[C@H](Oc1cccc2ccccc12)c1cccs1 as well?
Ans: 95

Q: Further, for CC(NC(C)(C)C)C(=O)c1cccc(Cl)c1 (stereo not shown) ?
Ans: -1

Q: What about CC(C(=O)c1ccc2c(c1)OCO2)N(C)Cc1ccccc1 (racemic) ?
Ans: 4

Q: Now consider COc1ccc2[nH]cc(CCNC(C)=O)c2c1 and answer again.
Ans: 46
